# TESTED SYSTEM: T1, Anti-PSMA Fab (SEQ ID NOs: 19, 20)
# T1 construct: also called 006 PSMA Fab
# MEASUREMENT NOTES: phage binding ELISA; biotinylated PSMA Fab on neutravidin plate, clonal phage supernatant, anti-M13 HRP detection;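 further: wells were preincubated with blocking buffer either containing PSMA antigen or without it before crude phage supernatant was added, briefly incubated, then washed prior to detection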
QUANTITY KIND: Anti-PSMA Fab (SEQ ID NOs: 19, 20) signal
Answers are plain numbers.

INSERT INTO results (binder, value_observed) VALUES
  ('IVPLCKPAWMCKLF (peptide, not shown: large carriers, Clonal phage supernatant) [Phage-1792]', 2.48),
  ('VEKVCKPVWMCVGF (peptide, not shown: large carriers, Clonal phage supernatant) [Phage-1798]', 2.41);

Fill in Anti-PSMA Fab (SEQ ID NOs: 19, 20) signal for each of the 2 binders listed.
1. TAHHCKPAWMCTGF (peptide, not shown: large carriers, Clonal phage supernatant) [Phage-1796]
2. FTNYCVPSWMCTGF (peptide, not shown: large carriers, Clonal phage supernatant) [Phage-1797]

Completion:
[2.42, 2.42]

// provenance: patent US20260242478A1
